Data credit: PubChem BioAssay (Tox21)

Target: Gonadotropin-releasing hormone receptor (Homo sapiens) (UniProt P30968)
Sequence (P30968 whole entry, looked up): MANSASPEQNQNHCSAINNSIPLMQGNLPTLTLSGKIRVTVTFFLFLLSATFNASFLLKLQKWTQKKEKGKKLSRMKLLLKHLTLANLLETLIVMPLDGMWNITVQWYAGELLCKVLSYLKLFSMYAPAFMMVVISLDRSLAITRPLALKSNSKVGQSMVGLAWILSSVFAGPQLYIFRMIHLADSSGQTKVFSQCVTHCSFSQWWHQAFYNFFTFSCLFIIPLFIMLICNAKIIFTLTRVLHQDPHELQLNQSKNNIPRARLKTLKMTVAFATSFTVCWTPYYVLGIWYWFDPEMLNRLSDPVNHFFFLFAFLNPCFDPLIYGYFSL
Assay: Human gonadotropin-releasing hormone receptor (GnRHR) small molecule agonists, calcium flux assay in GnRHR-HEK293 cells (AID 1920063); note: nearly all actives have a fitted effect of over 35% in size
Conditions: calcium flux fluorescence, agonist mode; series mostly up to 57.6 µM
From the text: National Center for Advancing Translational Sciences [NCATS] Division of Preclinical Innovation [DPI] U.S. Environmental Protection Agency [EPA] National Institutes of Environmental Health Sciences [NIEHS] National Toxicology Program [NTP] U.S. Food and Drug Administration [FDA] […] GnRHR-HEK293 cells developed by Codex Corp contain human GnRHR reporter gene, which was stably integrated into HEK 293 cells. The compound activation can be detected by fluorescence intensity via calcium flux assay. […]
Activity calls are given as the source filed them. Calls come from the whole dose curve.
Field 'call' accepts active, inactive

• C=C(C)[C@H]1CN[C@H](C(=O)O)[C@H]1CC(=O)O = inactive
• O=C(NC(=O)c1c(F)cccc1F)Nc1cc(Cl)c(OC(F)(F)C(F)F)c(Cl)c1 = inactive
• S=C=NCCc1ccccc1 = inactive
• O=[N+]([O-])c1cc(C(F)(F)F)c(Cl)c([N+](=O)[O-])c1Cl = inactive
• N#CCCC(Br)(C#N)CBr (stereo not drawn) = active
• O=C(Cc1ccccc1)OCc1ccccc1 = inactive
• O=S(=O)(Cl)c1ccccc1 = inactive
• CC(C)(C)c1ccc(CSc2cnn(C(C)(C)C)c(=O)c2Cl)cc1 = inactive
• CCCSP(=O)(OCC)Oc1ccc(Br)cc1Cl (stereo not drawn) = inactive
• CC(=O)[O-].CC(=O)[O-].[Hg+2] = active

Kindly provide the recorded test outcome for the following compound: `O=CC=O`
inactive

Kindly provide the recorded test outcome for the following compound: `CCOP(=O)(O)C(N)=O`
inactive

Kindly provide the recorded test outcome for the following compound: `ClC1=C(Cl)[C@]2(Cl)[C@@H]3[C@@H]4C[C@@H]([C@H]5O[C@@H]45)[C@@H]3[C@@]1(Cl)C2(Cl)Cl`
active

====

assay: G protein-coupled receptor (GPCR) small molecule agonists, calcium flux assay: HEK293 wild type cell line counter screen (AID 1920065); details: HEK293 WT calcium flux, fluorescence, agonist mode; series mostly up to 57.6 µM
Active and inactive are the calls of the source. The call rests on the fitted dose curve.
result type: activation

Worked set:
- C[C@]12C/C(=C/O)C(=O)C[C@@H]1CC[C@@H]1[C@@H]2CC[C@@]2(C)[C@H]1CC[C@]2(C)O: inactive
- Oc1ccc2ccc3cccc4ccc1c2c34: inactive
- CC(C)COP(=O)(OCC(C)C)OCC(C)C: inactive
- OC(Cn1cncn1)(c1ccc(F)cc1)c1ccccc1F (stereo unspecified): inactive
- CC(O)(CS(=O)(=O)c1ccc(F)cc1)C(=O)Nc1ccc(C#N)c(C(F)(F)F)c1 (stereo unspecified): inactive

Now for the compound whose activation we want.
Give me measured activation, please, for this compound: `CCN[C@H](C)Cc1cccc(C(F)(F)F)c1`
inactive

====

molecular target: Gonadotropin-releasing hormone receptor (Homo sapiens) (UniProt P30968); assay: Human gonadotropin-releasing hormone receptor (GnRHR) small molecule agonists, calcium flux assay in GnRHR-HEK293 cells (AID 1920063); settings: calcium flux fluorescence, agonist mode; series mostly up to 57.6 µM; note: nearly all actives have a fitted effect of over 35% in size
Activity calls are given as the source filed them. The call rests on the fitted dose curve.
Field 'call' accepts true (1) for active, false (0) for inactive

Observe how each entry below is paired with its result.
• O=C1C(I)=CC(=C(c2cc(I)c(O)c(I)c2)c2ccccc2C(=O)O)C=C1I = false (0)
• CS(=O)(=O)c1ccc(C(=O)C2C(=O)CCCC2=O)c([N+](=O)[O-])c1 = false (0)

Kindly provide the recorded test outcome for the following compound: `CCN1CCC2(CC1)COc1cc3c(cc12)N(C(=O)c1ccc(-c2ccc(-c4nnc(C)o4)cc2C)cc1)CC3`
false (0)

Kindly provide the recorded test outcome for the following compound: `CC[C@H]1C[C@H]2[C@@H]3CCC4=CC(=O)CC[C@@H]4[C@H]3CC[C@]2(C)[C@H]1O`
false (0)

Kindly provide the recorded test outcome for the following compound: `CN1C(=O)CN=C(c2ccccc2)c2cc([N+](=O)[O-])ccc21`
false (0)

Kindly provide the recorded test outcome for the following compound: `CCOCn1c(-c2ccc(Cl)cc2)c(C#N)c(Br)c1C(F)(F)F`
false (0)

Kindly provide the recorded test outcome for the following compound: `c1cncc([C@@H]2CCCCN2)c1`
false (0)

Kindly provide the recorded test outcome for the following compound: `O=[Se]=O`
false (0)

====

molecular target: 5-hydroxytryptamine receptor 2A (Homo sapiens); assay: 5-hydroxytryptamine receptor 2A (HTR2A) small molecule agonists, cell-based qHTS assay (AID 1963587); conditions: HTR2A-CHO cells, calcium flux fluorescence, agonist mode; series mostly up to 76.8 µM; note: nearly all actives have a fitted effect of over 30% in size
Records with an inconclusive call do not appear. Activity calls are given as the source filed them. Calls come from the whole dose curve.
Field 'call' accepts active, inactive

Observe how each entry below is paired with its result.
- CC(C)[C@@H](C(=O)O[C@@H](C#N)c1cccc(Oc2ccccc2)c1)c1ccc(Cl)cc1: inactive
- CC(Cc1ccccc1)NCCCCl (centres undefined): inactive
- Nc1c(Cl)c(F)nc(OCC(=O)O)c1Cl: inactive
- Cn1c(CCCC(=O)O)nc2cc(N(CCCl)CCCl)ccc21: inactive
- C=CCOC(C)=O: inactive

Kindly provide the recorded test outcome for the following molecule: `CC(=O)[O-].CC(=O)[O-].[Hg+2]`
active

Kindly provide the recorded test outcome for the following molecule: `Cc1cc2c3c(c1)C(c1ccccc1)=N[C@@H](NC(=O)c1ccncc1)C(=O)N3CC2`
inactive

Kindly provide the recorded test outcome for the following molecule: CCC/C(=N\OCC)C1=C(O)CC(CC(C)SCC)CC1=O (centres undefined)
inactive

Kindly provide the recorded test outcome for the following molecule: `CNN`
inactive

Kindly provide the recorded test outcome for the following molecule: `Oc1cccc(Cl)c1Cl`
inactive

====

test: Nuclear factor erythroid 2-related factor 2/antioxidant responsive element (Nrf2/ARE) small molecule agonists: luciferase reporter gene qHTS assay in human keratinocytes (AID 1919969); conditions: KeratinoSens HaCaT ARE-luciferase, luminescence, 24 h; series mostly up to 92.4 µM; note: nearly all actives have a fitted effect of over 35% in size
Results filed as inconclusive are left out. The source made the active and inactive calls. The call rests on the fitted dose curve.
Field 'call' accepts active, inactive

Observe how each entry below is paired with its result.
• Brc1ccc(Oc2ccc(Br)cc2Br)c(Br)c1 = active
• S=C=NCc1ccccc1 = active
• CSSC = active
• CCCCCCCCCCCCN(C)C = inactive
• CCc1nn(C)c(C(=O)NCc2ccc(C(C)(C)C)cc2)c1Cl = inactive

Kindly provide the recorded test outcome for the following compound: `OC(c1ccc(Cl)cc1)(c1ccc(Cl)cc1)c1cccnc1`
inactive

Kindly provide the recorded test outcome for the following compound: `CCC(C)(C)c1cc(-n2nc3ccccc3n2)c(O)c(C(C)(C)CC)c1`
inactive

Kindly provide the recorded test outcome for the following compound: `C=CC(=O)N(C)C`
inactive

Kindly provide the recorded test outcome for the following compound: CCC1COC(Cn2cncn2)(c2ccc(Cl)cc2Cl)O1 (stereo not drawn)
inactive

Kindly provide the recorded test outcome for the following compound: CCC(C)Nc1c([N+](=O)[O-])cc(C(C)(C)C)cc1[N+](=O)[O-] (stereo not drawn)
active

Kindly provide the recorded test outcome for the following compound: `CC(C)(C)c1ccc(OP(=O)(Oc2ccccc2)Oc2ccccc2)cc1`
inactive

Kindly provide the recorded test outcome for the following compound: `CN(C)S(=O)(=O)N(SC(F)(Cl)Cl)c1ccccc1`
active

Kindly provide the recorded test outcome for the following compound: `Brc1cccc(-c2ccccc2)c1`
inactive

====

test: p53 small molecule agonists, cell-based qHTS assay with human liver microsomes: qHTS cell viability counter screen (AID 1963579); conditions: p53RE-bla HCT-116 viability, ATP luminescence, 16 h, HLM; series mostly up to 66 µM; note: nearly all actives have a fitted effect of over 45% in size
Results filed as inconclusive are left out. The source made the active and inactive calls. Calls follow the shape of the full dose curve.
Field 'call' accepts active, inactive

- CCOc1cc(Oc2ccc(C(F)(F)F)cc2Cl)ccc1[N+](=O)[O-]: inactive

Kindly provide the recorded test outcome for the following compound: c1ccc(OCC2CO2)cc1 (centres undefined)
inactive

Kindly provide the recorded test outcome for the following compound: `Brc1ccc(Oc2ccc(Br)cc2Br)c(Br)c1`
inactive

Kindly provide the recorded test outcome for the following compound: `CC(C)(C)OC(=O)c1ncn2c1[C@@H]1CCCN1C(=O)c1c(Br)cccc1-2`
inactive

Kindly provide the recorded test outcome for the following compound: COP(=S)(NC(C)C)Oc1ccc(C)cc1[N+](=O)[O-] (centres undefined)
inactive

Kindly provide the recorded test outcome for the following compound: `O=[N+]([O-])c1ccc2ccc3cccc4ccc1c2c34`
inactive

Kindly provide the recorded test outcome for the following compound: `COC(N)=O`
inactive

Kindly provide the recorded test outcome for the following compound: `COc1ccc2c(c1OC)C(=O)O[C@H]2[C@@H]1c2cc3c(cc2CCN1C)OCO3`
inactive

Kindly provide the recorded test outcome for the following compound: `CCN(CC)C(=O)N[C@@H]1C=C2c3cccc4[nH]cc(c34)C[C@@H]2N(C)C1`
inactive

Kindly provide the recorded test outcome for the following compound: `Cc1nc(N)nc(N)n1`
inactive

Kindly provide the recorded test outcome for the following compound: `CN1C(=S)CN=C(c2ccccc2)c2cc(Cl)ccc21`
inactive

Kindly provide the recorded test outcome for the following compound: `O=C(CCCCl)c1ccc(F)cc1`
inactive

Kindly provide the recorded test outcome for the following compound: `O=[N+]([O-])C(Br)Br`
inactive
